Where do these numbers come from? They come from ChEMBL document CHEMBL3433997.

# measured target: Solute carrier family 2, facilitated glucose transporter member 1 (Homo sapiens) (UniProt P11166)
# Sequence (P11166 whole entry): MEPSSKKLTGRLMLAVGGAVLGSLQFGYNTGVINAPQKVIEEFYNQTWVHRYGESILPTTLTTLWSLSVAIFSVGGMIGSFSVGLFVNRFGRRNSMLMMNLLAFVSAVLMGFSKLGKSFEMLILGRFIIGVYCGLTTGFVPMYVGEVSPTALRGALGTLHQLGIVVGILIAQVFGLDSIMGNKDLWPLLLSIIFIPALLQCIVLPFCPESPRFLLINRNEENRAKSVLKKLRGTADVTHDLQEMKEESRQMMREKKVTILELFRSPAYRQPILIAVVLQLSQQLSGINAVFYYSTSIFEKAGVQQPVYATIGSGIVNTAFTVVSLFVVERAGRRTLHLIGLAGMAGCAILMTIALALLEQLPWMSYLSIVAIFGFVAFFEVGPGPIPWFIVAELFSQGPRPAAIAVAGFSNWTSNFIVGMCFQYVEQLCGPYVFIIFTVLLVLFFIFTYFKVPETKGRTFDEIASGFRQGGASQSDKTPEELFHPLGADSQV
# assay comment: ST_JUDE_LEISH: Cytotoxicity at 2uM final concentration against transgenic Leishmania Mexicana promastigotes LmGLUT1 that are glucose transport deficient and complemented with the human glucose transporter GLUT1. Activity is measured by DNA content using SYBR green in vitro
# Type: functional
property name: inhibition (%)
Give bare numbers, in %.

COC(=O)C(Cc1ccccc1)C(CSCc1ccc(OC)cc1)C(=O)N[C@@H](C(=O)OC(C)(C)C)c1ccc(C(C)(C)C)cc1 (some centres undefined) :: 4.24

// batch mode: one inhibition value per listed entry
1. COc1cc2nc(N3CC(C)N(C(=O)Cc4ccc(-c5ccccc5)cc4)C(C)C3)nc(N)c2cc1OC (centres undefined)
2. CC1(C)NC(N)=NC(=N)N1OCCCCOc1ccc(Cl)cc1C1CCCCC1
3. CCc1ccc(N2C(N)=NC(N)=NC2(C)C)cc1

# output
[6.24, 18, 0.74]

// batch mode: one inhibition value per listed entry
1. O=C(Nc1cccc(-c2nn3ccccc3c2-c2ccnc(Nc3ccccc3)n2)c1)c1c(F)cccc1F
2. C[C@H](Cc1ccc(OCCNC[C@H](O)c2cccc(Cl)c2)cc1)NC[C@H](O)c1ccc(Cl)c(Cl)c1
3. Cc1nn(C)c(C)c1CN(Cc1nc(-c2cccc(Oc3ccccc3)c2)oc1C)C1CC1
4. CC(C)C[C@@H](/C=N/N1CCOC1=O)NC(=O)[C@H](CC(C)C)NC(=O)c1ccc(F)cc1

# output
1. 0.96
2. 2.67
3. 4.08
4. 7.39

# input Find the recorded inhibition belonging to "CC(=O)Nc1cccc(Nc2nccc(Nc3ccc(Oc4ccccc4)cc3)n2)c1" and report it.
# output 1.64
